# target.or.system: T1, recombinant cyno Tie2 extracellular domain (cynomolgus monkey, UniProt Q02763 23-748 (human entry))
# T1 construct: also called Recombinant cyno Tie2 ECD; cy Tie2
# T1 chain: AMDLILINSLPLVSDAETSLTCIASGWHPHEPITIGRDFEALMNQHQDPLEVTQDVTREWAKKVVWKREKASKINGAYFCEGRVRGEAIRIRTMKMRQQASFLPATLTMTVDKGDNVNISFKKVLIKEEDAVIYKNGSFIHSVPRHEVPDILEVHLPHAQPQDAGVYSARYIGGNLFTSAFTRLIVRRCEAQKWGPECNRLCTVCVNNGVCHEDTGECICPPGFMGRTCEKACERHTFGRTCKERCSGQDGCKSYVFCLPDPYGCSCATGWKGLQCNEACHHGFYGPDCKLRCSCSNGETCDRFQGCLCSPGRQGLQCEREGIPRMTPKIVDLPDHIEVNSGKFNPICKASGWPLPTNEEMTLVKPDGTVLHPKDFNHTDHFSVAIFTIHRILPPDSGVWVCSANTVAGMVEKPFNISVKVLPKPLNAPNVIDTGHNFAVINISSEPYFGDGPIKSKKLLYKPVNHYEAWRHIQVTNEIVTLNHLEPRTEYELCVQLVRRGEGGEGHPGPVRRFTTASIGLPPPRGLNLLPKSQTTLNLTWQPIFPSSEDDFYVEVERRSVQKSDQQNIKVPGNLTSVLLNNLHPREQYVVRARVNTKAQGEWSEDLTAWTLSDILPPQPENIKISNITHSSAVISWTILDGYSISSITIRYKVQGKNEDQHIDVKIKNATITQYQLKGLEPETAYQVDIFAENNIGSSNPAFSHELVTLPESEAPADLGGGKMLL
# method.description: SPR, IgG captured, 37C

{"binder": "Tie2.1.M100cG (antibody, IgG1, name in Kabat numbering, V domains shown, hIgG1) VH: EVQLVESGGGLVQPGGSLRLSCAASGFTFSNTDISWVRQAPGKGLEWVGRISPSDGNTYYADSVKGRFTISADTSKNTAYLQMNSLRAEDTAVYYCARRTRWASWAGDYWGQGTLVTVSS VL: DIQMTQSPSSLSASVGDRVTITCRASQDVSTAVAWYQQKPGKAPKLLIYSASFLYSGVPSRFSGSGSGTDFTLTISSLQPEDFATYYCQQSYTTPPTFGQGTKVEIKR", "Normalized Binding Signal, 300 nM": 0.05}
